ASSAYED TARGET: T1, CD28, endogenously expressed on Jurkat/IL2 reporter cells (human, UniProt P10747 19-220)
T1 construct: whole, on cells
EXPERIMENTAL DETAILS: flow cytometry, Jurkat/IL2 reporter cells (endogenous CD28); MFI against WT CD80 of the table
Listing of entries alongside the reported Fold change to WT CD80.
Form entry: value (fold) — number only.

INSERT INTO measurements (binder, result_number) VALUES
  ('variant CD80 IgV-Fc E35D/M47V/N48K/V68M/A71G/L85M (Fc fusion, not shown: small tags and cut ends; a dimerising Fc or GST) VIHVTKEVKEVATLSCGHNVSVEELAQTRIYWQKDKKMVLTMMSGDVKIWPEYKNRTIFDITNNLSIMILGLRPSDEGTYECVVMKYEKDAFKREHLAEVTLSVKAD', 9.6);

Task: Quick check: Fold change to WT CD80 of variant CD80 IgV-Fc E35D/M47V/N48K/V68M/L85M (Fc fusion, not shown: small tags and cut ends; a dimerising Fc or GST) VIHVTKEVKEVATLSCGHNVSVEELAQTRIYWQKDKKMVLTMMSGDVKIWPEYKNRTIFDITNNLSIMILALRPSDEGTYECVVMKYEKDAFKREHLAEVTLSVKAD ?
Result: 7.8
